Origin of the recorded values: patent US20030039957A1

measured-target: wild-type lanosterol 14 alpha-demethylase protein (Candida albicans)
Sequence (P10613 whole entry): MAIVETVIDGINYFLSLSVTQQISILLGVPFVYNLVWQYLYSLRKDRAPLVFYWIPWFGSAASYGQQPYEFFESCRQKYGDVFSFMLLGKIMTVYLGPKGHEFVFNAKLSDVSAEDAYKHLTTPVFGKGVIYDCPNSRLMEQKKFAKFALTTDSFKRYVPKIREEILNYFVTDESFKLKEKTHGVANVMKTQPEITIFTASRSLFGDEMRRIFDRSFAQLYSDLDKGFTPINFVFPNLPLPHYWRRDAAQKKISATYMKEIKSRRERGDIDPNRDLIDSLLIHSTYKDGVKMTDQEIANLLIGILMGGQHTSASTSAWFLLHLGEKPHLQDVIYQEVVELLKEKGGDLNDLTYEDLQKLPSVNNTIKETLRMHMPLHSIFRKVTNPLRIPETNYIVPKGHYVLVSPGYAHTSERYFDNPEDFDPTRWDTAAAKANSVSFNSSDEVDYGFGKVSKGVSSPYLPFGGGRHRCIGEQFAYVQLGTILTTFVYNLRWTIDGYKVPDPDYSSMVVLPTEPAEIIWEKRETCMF
test-protocol: Prevention of CO-complex formation with reduced cytochrome P450, wild-type
Type: binding, C. albicans
Set-up: A 60 kDa protein, corresponding to the lanosterol 14 alpha-demethylase protein, was produced from this eukaryotic expression system; made in house
condition: wild-type proteins
pIC50: −log10 of the molar value.

- structure-as-smiles: "OC(Cn1cncn1)(Cn1cncn1)c1ccc(F)cc1F"
  pIC50: 7.40
